TARGET ENTITY: Nb55 (Lama glama (llama immune VHH library), UniProt PDB:9GXH_1)
ASSAY OVERVIEW: ITC
MEASUREMENT TYPE: binding result

Solved entries:
binder="GAAAAACCCCCTTTTTC (structured_DNA) [B-DNA hairpin]" assay_value="no binding"
binder="GGTGGGTGTGGTTGG (structured_DNA) [TBA T4G]" assay_value="no binding"
binder="GGGCGCGGGAGGAATTGGGCGGG (structured_DNA) [Bcl2]" assay_value="no binding"
binder="GACCCCGCCCCCGGCCCGCCCCCG (structured_DNA) [VEGF]" assay_value="no binding"

[in] Look up binding result: TGAGGGTGGGTAGGGTGGGTAA (structured_DNA) [c-Myc]
[out] no binding
